tested on: RARb:RXRa (NR concentration 270 nM, RXRa partner concentration 90 nM); assay: PBM binding z-score (relative to random genomic background probes); higher = stronger binding; sequences stand for … in GC…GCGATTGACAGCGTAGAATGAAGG
valueKind: PBM binding z-score

>>> recordedmeasurement("TCTTGTAGTTCAAGCAGGTTAAGAAAGCCTGAGT")
2.3
>>> recordedmeasurement("CCTAGTTGGTCATGAGGTCACACACCGGATATGA")
4.14
>>> recordedmeasurement("CGAACTAGTTCAGAACAGGACAGTGAAGGATGAT")
0.618
>>> recordedmeasurement("CGTCCAAGGTCAAAGTCAGTGAAAGAGACTCGAA")
5.14
>>> recordedmeasurement("CGTCCAAGGCCAGAGAGGTCAGTGAATGCCGAGT")
3.41
>>> recordedmeasurement("ACTACTAGTTGACTTAGGGCAACCGATACGACGC")
0.59
>>> recordedmeasurement("CCAGACAGGTGGAAGGTAACTCAGTCTGGTACGC")
-0.313
>>> recordedmeasurement("CCGACTGGGGCAAAGGTTACTATACTCAGTACGA")
1.86
>>> recordedmeasurement("TCATATAGGTAAAAGATGAAAGTCGGTGTGGTAA")
0.338
>>> recordedmeasurement("GCATATAGGTATTACAAGGTGAAAGTCCGATTGT")
0.417
>>> recordedmeasurement("ATCGAAAGGTCGAGGTGAGTACAGAGAAAGGGAA")
4.14
>>> recordedmeasurement("TCTTGTAAATCAAAGGTTAAGAAAGCCGAAGCCT")
1.87
>>> recordedmeasurement("ATCGAAAGGTCGACGAGATGAGTATACACCGTTT")
3.79
>>> recordedmeasurement("TAGCCTAGGTCATGGGCCCGTATACCACGCGAAC")
3.81
>>> recordedmeasurement("GATAAAGGGTCAAGGCCAGAGTACGCGTATTGAT")
5.26
>>> recordedmeasurement("CCTACTAGGCCACGAAAGGTCATTGATTCAGTGA")
4.06
>>> recordedmeasurement("ATTGAAAGGTCGTGAGGTGAGTATACAGAAAGGC")
4.3
>>> recordedmeasurement("CAAACTAGGTCAAGGTCACAGTCGGTTTGTGCCA")
5.17
>>> recordedmeasurement("ACTATTAGTTGAGACGAGGGCTACCGATAGGTTG")
0.191
>>> recordedmeasurement("GCTTGTAGATAAAGGTTAAGAAAGACTAAGCTAA")
1.66
>>> recordedmeasurement("CCTATTATTTGACCATAAGGGCAACCGAAGCTCG")
1.64
>>> recordedmeasurement("AGAACGAGGGCACGCTGAGTTGAGAGCAGAGTAG")
2.54
>>> recordedmeasurement("TCGAGCAGGCCAGAGGGTCACTCAAGAGGTACGG")
2.19
>>> recordedmeasurement("CCGAGTAGGTTATGGGGCGTTCAGGCAACGGTGA")
0.904
>>> recordedmeasurement("AGAACGAGGGCACTCTGAGTTGATAGCAGAGTAG")
1.84
>>> recordedmeasurement("GCTCGGAGGATAAGGTCAGAGCTTTGTCCGTAGA")
3.29
>>> recordedmeasurement("TTACCAACGTGAAAGGTCGTTGATGCACGCCTTG")
1.66
>>> recordedmeasurement("ATCGAAAGGTCGAAGGTGAGTATGCCCACCCGAA")
3.83
>>> recordedmeasurement("GCTAGTTGGTCAGCAAAAGGTCACACACCGGTCG")
4.37
>>> recordedmeasurement("CGAACTAGGTCAGAACAGGACAGTGGAGGATGAT")
2.99
>>> recordedmeasurement("CGTCAAAGTTCAACTAGGGTAACGTAAAGCACGC")
5.37
>>> recordedmeasurement("TCGAGTAGGTTAATCGGGGCATTCAGCCAACATA")
0.81
>>> recordedmeasurement("GCTGACAGGTGAAACGCAGGTAACTCAGGGTGGC")
0.773
>>> recordedmeasurement("CCGTACGGGTCACTGACAGGTTATAGCATTTGGA")
4
>>> recordedmeasurement("ATACCAAGGTGATCGTGAGGTCGTTTATACTAAC")
1.51
>>> recordedmeasurement("CGTCCAAGGTTAGCAGGTCAGTGAAAGCGACGTG")
3.08
>>> recordedmeasurement("TCTTGTAGATCAGCATGTTAAGAAAGCTGGCCAA")
-0.19
>>> recordedmeasurement("GCTGCTAGGTCAACTGATGGTCAGTTAAAGCTCG")
4.15
>>> recordedmeasurement("TCATATAGGTAAACAGGTGCAAGTCCGTAAGTTA")
0.765
>>> recordedmeasurement("AGTCAAAGTTCATCCAGGTAACGTAAGATATGCT")
4.83
>>> recordedmeasurement("CCAGACAGGTGAGAAGGTAGCTCAGCCTCGATTA")
0.327
>>> recordedmeasurement("ATACCAAGGGGATCGTGAGGTCGTTGATACTAAC")
0.379
>>> recordedmeasurement("CCGACTGGGGCATAAGCTTACCATAAGCCAGCCC")
-0.11
>>> recordedmeasurement("AGTCAAAGTTCCGGACGAGGTAACGTAAAGCACG")
0.265
>>> recordedmeasurement("ATCGAAAGGTCGAAGGCGAGTATACCCACCCGAA")
3.57
>>> recordedmeasurement("GCTAGCAGGCGATTTGGGTCACTCAATGACGGGC")
0.752
>>> recordedmeasurement("ATCGAAAGGCCGACGAGGTGAGTATACACCGTTT")
1.33

----------
Measured PBM binding z-score values are reported for all entries that follow.
system: LXRa:RXRa (NR concentration 270 nM, RXRa partner concentration 90 nM); assay: PBM binding z-score (relative to random genomic background probes); higher = stronger binding; sequences stand for … in GC…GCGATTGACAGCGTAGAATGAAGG
valueKind: PBM binding z-score

>>> recordedmeasurement("CCGACTGGGGCAAGGATACCATAACGCACAGCCA")
-0.243
>>> recordedmeasurement("CCGGCTAGGTCATGGTCAGCTAATCTACAGTATG")
2.64
>>> recordedmeasurement("AGAATGAGGTTATAAGTAGATCAGGGAAGAAAGT")
1.59
>>> recordedmeasurement("GCTTGTAGATCAAGGTTGAGAAAGACTAAGCTAA")
-0.5
>>> recordedmeasurement("CGTGCTAGGTCAATGGTCAGCTAAAGCAGCTCGC")
2.22
>>> recordedmeasurement("GCTGCTAGGTCAGGTTGGTCAGATAACGGGTACG")
0.895

----------
tested on: THRa homodimer (NR concentration 90 nM); assay: PBM binding z-score (relative to random genomic background probes); higher = stronger binding; sequences stand for … in GC…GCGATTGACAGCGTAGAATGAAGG
PBM binding z-score values for the sequences below.
valueKind: PBM binding z-score

>>> recordedmeasurement("AACTCTAGGTAAAGATAGTTCAGTGAATGCAAAT")
-0.108
>>> recordedmeasurement("ACTAGCAGGCCAAGTTTGGGTCACTGAAACAAAG")
1.29
>>> recordedmeasurement("CGAACGAGGGGATGAGTTGATAGCAAATGCCGAT")
-0.206
>>> recordedmeasurement("CGAACTAGGTCATTGACAGGACGGTGAATAGTAA")
0.313
>>> recordedmeasurement("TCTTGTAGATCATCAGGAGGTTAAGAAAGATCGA")
-0.482
>>> recordedmeasurement("TCATATAGGTAAACTGGTGAAAGTCCGTAAGTTA")
0.281

----------
system: RARa homodimer (NR concentration 270 nM); assay: PBM binding z-score (relative to random genomic background probes); higher = stronger binding; sequences stand for … in GC…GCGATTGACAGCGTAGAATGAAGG
Given measured PBM binding z-score, output Yes if it is greater than or equal to 0.6 and No if not.

>>> grouplabel("AATACAGGGTCATCGCAGGCCAGAGTACGCACAG")
"Yes"
>>> grouplabel("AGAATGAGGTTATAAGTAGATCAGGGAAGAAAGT")
"No"
>>> grouplabel("ATATCTAGGTAAGACTCAGTTCAGTGAAGAACGC")
"Yes"
>>> grouplabel("ATCTGTAGGTTAAGGGTCATTCAGGTTGGTTCGC")
"Yes"
>>> grouplabel("CGAATGAGGGCATGAGTTGATAGCAAATGCCGAT")
"No"
>>> grouplabel("CGGACTAGGTCAAGGACAGTGAATCTCCGCACGC")
"No"
>>> grouplabel("TGAATGAGGGTAAAGATCAGGGAACGTGGCGTCG")
"No"
>>> grouplabel("CCGAGTAGGTTATTGGGCATTCAGGCAACGGTGA")
"No"

----------
system: RARb homodimer (NR concentration 270 nM); test: PBM binding z-score (relative to random genomic background probes); higher = stronger binding; sequences stand for … in GC…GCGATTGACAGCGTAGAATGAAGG
valueKind: PBM binding z-score

>>> recordedmeasurement("ACGTACGGGTCAACGAGGTTATAGCACGCGTATA")
3.58
>>> recordedmeasurement("ATCTTTAGGTAACAAGTTCAGTGAAAGAGAGGAC")
2.04
>>> recordedmeasurement("TAGCCTAGGTAATTCAGGGGCCAGTATAGAAAGC")
0.306
>>> recordedmeasurement("CCTCGGAGGACAAAAGGTCAGAGCTGTCCGCTTT")
5.18
>>> recordedmeasurement("CTCGAAAGGTCGGTCGAGGTGAGTATACGGATAA")
2.4
>>> recordedmeasurement("CCTCGGAGGACAGAAGGTAAGAGCTGTCCGCTTT")
-0.457
>>> recordedmeasurement("CGAACTAGGTCAGAACAGAACAGTGAAGGATGAT")
1.65
>>> recordedmeasurement("TCTAGTTTGTCAAAGGTCACACACTCGAAATGCG")
4.86
>>> recordedmeasurement("TCTTGTAGATCAAAGGCTAAGAAAGCCGAAGCCT")
-0.521
>>> recordedmeasurement("CCGACTGGGGCAGTAAGGTTACCATACCATCCGG")
1.56
>>> recordedmeasurement("GCAGAGAGGTGAAACGCAGGTAACTCAGGGTGGC")
1.31
>>> recordedmeasurement("GCTTGTAGATCAAGGTTAAGTAAGACTAAGCTAA")
0.397
>>> recordedmeasurement("GCATATTGGTAATACAAGGTGAAAGTCCGATTGT")
0.603
>>> recordedmeasurement("ACTAGCAGGCCAAGTCTGGGTCACTCAAACAAAG")
2.36
>>> recordedmeasurement("ATCTCTAGGTAACAAGTCCAGTGAAAGAGAGGAC")
0.709
>>> recordedmeasurement("ACTAGCTGGCCAAGGGTCACTCAAGATTAGTCCG")
3.54
>>> recordedmeasurement("AGAACGAGGGCACGCTGAGTTGATAGAAGAGTAG")
1.17
>>> recordedmeasurement("CAAACTAGGTCAAGGTCAAGGTCGGTTTGTGCCA")
5.4
>>> recordedmeasurement("ATCGAAATGTCGAGGTGAGTATAGAGAAAGGGAA")
-0.158
